Listed below: DC50 values for each entry.
# System name: androgen receptor (AR) splicing variant AR-v7 (Homo sapiens, UniProt P10275)
# Construct: The degradation activity of compounds on AR-v7 in 22RV1 cells; host or cells: 22RV1 cells
# Sequence (P10275 1-644 isoform P10275-3): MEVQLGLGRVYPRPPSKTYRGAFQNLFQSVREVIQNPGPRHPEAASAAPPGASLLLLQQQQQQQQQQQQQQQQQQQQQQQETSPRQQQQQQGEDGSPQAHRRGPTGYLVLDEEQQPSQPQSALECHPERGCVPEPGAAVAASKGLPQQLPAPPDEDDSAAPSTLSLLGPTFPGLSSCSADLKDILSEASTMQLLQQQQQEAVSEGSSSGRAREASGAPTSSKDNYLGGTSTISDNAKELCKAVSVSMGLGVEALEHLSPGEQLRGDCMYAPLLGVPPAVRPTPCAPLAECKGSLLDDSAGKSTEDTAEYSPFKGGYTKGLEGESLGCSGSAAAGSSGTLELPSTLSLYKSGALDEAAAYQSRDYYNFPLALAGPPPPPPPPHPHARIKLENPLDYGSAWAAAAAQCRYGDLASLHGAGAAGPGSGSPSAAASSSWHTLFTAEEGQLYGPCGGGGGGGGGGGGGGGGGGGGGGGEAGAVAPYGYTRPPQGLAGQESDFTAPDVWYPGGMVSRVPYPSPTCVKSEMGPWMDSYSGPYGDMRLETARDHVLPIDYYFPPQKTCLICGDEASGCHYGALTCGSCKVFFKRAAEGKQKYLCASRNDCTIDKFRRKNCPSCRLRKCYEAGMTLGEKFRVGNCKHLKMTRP
# Experiment summary: Degradation activity on androgen receptor splicing variant AR-v7 in 22RV1 cells (ELISA)
# Type: cell-based
# Study conditions: AR-v7 degradation in 22RV1 cells, 48 h, class symbols

Worked examples follow.
INSERT INTO results (compound, system_name, endpoint_result) VALUES
  ('CC(=O)c1nccc(COc2ccc(C(C)(C)c3ccc(O[C@H]4CC[C@H](Nc5ccc6c(c5)C(=O)N(C5CCC(=O)NC5=O)C6=O)CC4)cc3)cc2)n1 (stereo partly drawn)', 'androgen receptor (AR) splicing variant AR-v7 (Homo sapiens, UniProt P10275)', '1000 to 5000 nM'),
  ('CC(C)(c1ccc(OCc2ccc(F)c(-n3nccn3)n2)cc1)c1ccc(O[C@H]2C[C@H](Nc3ccc4c(c3)C(=O)N(C3CCC(=O)NC3=O)C4=O)C2)cc1 (stereo partly drawn)', 'androgen receptor (AR) splicing variant AR-v7 (Homo sapiens, UniProt P10275)', '11 to 100 nM'),
  ('Cc1nnc(-c2cnc(Oc3ccc(C(C)(C)c4ccc(O[C@H]5C[C@H](Nc6ccc7c(c6)C(=O)N(C6CCC(=O)NC6=O)C7=O)C5)cc4)cc3)cn2)o1 (stereo partly drawn)', 'androgen receptor (AR) splicing variant AR-v7 (Homo sapiens, UniProt P10275)', '< 10 nM'),
  ('CC(O)c1ccc(Oc2ccc(C(C)(C)c3ccc(O[C@H]4C[C@@H](Nc5ccc6c(c5)C(=O)N(C5CCC(=O)NC5=O)C6=O)C4)cc3)cc2)cn1 (stereo partly drawn)', 'androgen receptor (AR) splicing variant AR-v7 (Homo sapiens, UniProt P10275)', '11 to 100 nM'),
  ('O=C1CCC(N2C(=O)c3ccc(N[C@H]4C[C@H](Oc5ccc(C6(c7ccc(Oc8ccc(-n9nccn9)nn8)cc7)CC6)cc5)C4)cc3C2=O)C(=O)N1 (stereo partly drawn)', 'androgen receptor (AR) splicing variant AR-v7 (Homo sapiens, UniProt P10275)', '11 to 100 nM');

Next:
QUERY: What does the data say about its DC50? Entry: CC(C)(c1ccc(OCc2ccnc(N3CCNCC3)n2)cc1)c1ccc(OC2CC(Nc3ccc4c(c3)C(=O)N(C3CCC(=O)NC3=O)C4=O)C2)cc1 (stereo not drawn)
RESULT: < 10 nM
